Molecular target: T1, Human Siglec-15, His Tag (human Siglec-15 full-length extracellular domain linked with His tag) (human, UniProt Q6ZMC9 20-263)
T1 construct: Bought from ACROBiosystems; also called Siglec-15 protein; SG5-H52H3
T1 sequence: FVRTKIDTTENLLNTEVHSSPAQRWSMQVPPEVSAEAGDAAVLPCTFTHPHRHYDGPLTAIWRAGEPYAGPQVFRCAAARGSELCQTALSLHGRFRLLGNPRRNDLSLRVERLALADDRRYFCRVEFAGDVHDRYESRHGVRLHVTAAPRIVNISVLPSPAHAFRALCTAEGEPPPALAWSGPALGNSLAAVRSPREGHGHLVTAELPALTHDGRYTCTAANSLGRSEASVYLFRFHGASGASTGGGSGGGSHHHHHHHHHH
Assay: SPR Biacore, antibody captured by anti-human Fc on CM5, Siglec-15 protein as analyte
API: label(entry) gives label 1 if the entry's koff is strictly smaller than 0.0003 s⁻¹; on equality or larger values it gives label 0.

>  <binder>
174C11C9-hH3L3 (antibody, IgG1, V domains shown, Humanized; hIgG1, Kappa) VH: QVQLVQSGAEVKKPGASVKVSCKASGYIFTDYYMNWVRQAPGQGLEWIGVFNPYSGGISYAQKFKGRVTLTVDTSTSTAYMELSSLRSEDTAVYYCARDYYYLSSHGFYALDYWGQGTTVTVSS VL: DIQLTQSPSSLSASVGDRVTITCRASESVDSYGNSFIHWYQQKPGKAPKLLMYRASNLESGVPSRFSGSGSGTDFTLTISSLQPEDFATYYCQQSNEDPLTFGQGTKLEIK

>  <assignedClass>
label 0

$$$$
>  <binder>
21F6C6-hH1L1 (antibody, IgG1, V domains shown, Humanized; hIgG1 heavy chain constant region, Kappa light chain constant region) VH: EVQLVESGGGLVKPGGSLRLSCAASGFTFSSYAMSWVRQAPGKGLEWVATISSGGSLIYYPDSVTGRFTISRDNAKSTLYLQMNSLRAEDTAVYYCVRHGYYYGDSTLYYAMDYWGQGTTVTVSS VL: DIQLTQSPSSLSASVGDRATITCRASQSVDYDGDSYMNWYQQKPGKAPKLLIYAASNLESGIPARFSGSGSGTDFTLTISSVQPEDFATYYCQQSNEAPLTFGQGTKLEIK

>  <assignedClass>
label 0

$$$$
>  <binder>
124B11F6-hH2L2 (antibody, IgG1, V domains shown, Humanized; hIgG1, Lambda) VH: QVQLVQSGAEVKKPGASVKVSCKASVFNIKDYYMHWVRQAPGQGLEWIGRIDPEDDKTKYAPKFQGRVTITADTSTSTAYLELSSLRSEDTAVYYCVRGWLGYIMDFWGQGTTVTVSS VL: QLVLTQSPSASASLGASVKLTCTLSSQHSTYTIDWYQQQPEKGPRYVMELKEDGSHSTGDGIPDRFSGSSSGAERYLTISSLQSEDEADYICGVGATIKEQFVYVFGGGTKVTVL

>  <assignedClass>
label 1

$$$$
>  <binder>
174C11C9-hH2L2 (antibody, IgG1, V domains shown, Humanized; hIgG1, Kappa) VH: QVQLVQSGAEVKKPGASVKVSCKASGYIFTDYYMNWVRQAPGQGLEWIGVFNPYSGGISYNQKFKGRVTLTVDTSTSTAYMELSSLRSEDTAVYYCARDYYYLSSHGFYALDYWGQGTTVTVSS VL: DIQLTQSPSSLSASVGDRVTITCRASESVDSYGNSFIHWYQQKPGKAPKLLMYRASNLESGIPSRFSGSGSGTDFTLTISSLQPEDFATYYCQQSNEDPLTFGQGTKLEIK

>  <assignedClass>
label 0

$$$$
>  <binder>
21F6C6 chimeric antibody (antibody, human IgG1, V domains shown, also called 21F6C6-mHL) VH: EVMLVESGGGLVKPGGSLKLSCAASGFTFSSYAMSWVRQSPEKRLEWVATISSGGSLIYYPDSVTGRFTISRDNAKSTLYLQMSSLRSEDTAMYYCVRHGYYYGDSTLYYAMDYWGPGTSVTVSS VL: DIVLTQSPASLAVSLGQRATISCKASQSVDYDGDSYMNWYQQKPGQPPKLLIYAASNLESGIPARFSGSGSGTDFTLNIHPVEEEDAATYYCQQSNEAPLTFGAGTKLELK

>  <assignedClass>
label 0

$$$$
